Hello, the source for this data is patent US6559159B2, in case you need it.

Target: delta opioid receptor (Homo sapiens)
Sequence (P41143 whole entry): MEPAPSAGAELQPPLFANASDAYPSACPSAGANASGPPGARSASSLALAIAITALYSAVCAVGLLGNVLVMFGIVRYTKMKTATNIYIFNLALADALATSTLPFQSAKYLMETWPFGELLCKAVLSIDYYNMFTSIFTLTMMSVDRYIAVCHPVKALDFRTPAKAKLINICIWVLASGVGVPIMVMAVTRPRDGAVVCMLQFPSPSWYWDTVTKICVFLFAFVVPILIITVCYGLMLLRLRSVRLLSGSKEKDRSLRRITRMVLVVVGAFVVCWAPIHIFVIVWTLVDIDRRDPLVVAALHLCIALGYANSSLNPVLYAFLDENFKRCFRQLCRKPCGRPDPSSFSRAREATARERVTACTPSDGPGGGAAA
Assay: Inhibition of SNC-80-stimulated [35S]GTPγS binding in cloned human opioid receptors
Assay type: biochemical
Set-up: expressed in transfected cells
Settings: 50% attenuation of SNC80 (10 μM)-stimulated [35S]GTP-γ-S binding, ± SD, read-out: Apparent Functional Ki SNC-80
pKi: −log10 of the molar value.
PROPERTY MEASURED: pKi

Exercise: Give me measured pKi, please, for this molecule: C[C@@H]1CN(CCCc2ccccc2)[C@H]2C[C@H](NC(=O)CCN3CCCCC3)C[C@]1(c1cccc(O)c1)C2
Key: < 7.00

----------
Target: UniProt:P41145
Sequence (P41145 whole entry): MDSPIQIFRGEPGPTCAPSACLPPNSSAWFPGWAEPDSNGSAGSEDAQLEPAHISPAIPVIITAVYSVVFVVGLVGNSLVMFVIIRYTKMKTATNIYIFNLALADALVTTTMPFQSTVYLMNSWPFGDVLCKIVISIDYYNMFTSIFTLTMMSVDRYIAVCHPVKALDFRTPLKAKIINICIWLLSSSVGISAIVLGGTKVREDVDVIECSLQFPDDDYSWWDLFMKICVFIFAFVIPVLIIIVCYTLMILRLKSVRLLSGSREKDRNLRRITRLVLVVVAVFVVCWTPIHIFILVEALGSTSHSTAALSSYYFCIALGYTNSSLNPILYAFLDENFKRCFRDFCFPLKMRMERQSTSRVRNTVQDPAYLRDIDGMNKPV
Experiment: Inhibition of U69,593-stimulated [35S]GTPγS binding in cloned human opioid receptors
Type: biochemical
Parameters: expressed in transfected cells
Conditions: cloned human opioid receptors; 50% attenuation of U69,593 (10 μM)-stimulated [35S]GTP-γ-S binding; ± SD; read-out: Apparent Functional Ki U69,593
PROPERTY MEASURED: pKi
For clarity, pKi is expressed as the negative log10 of concentration in mol/L.

Exercise: Give me measured pKi, please, for this molecule: C[C@@H]1CN(CCCc2ccccc2)[C@H]2C[C@H](NC(=O)CCN3CCCCC3)C[C@]1(c1cccc(O)c1)C2
Key: 9.25

----------
Target: delta opioid receptor (Cavia porcellus)
Construct: as measured in guinea pig caudate membranes
Sequence (A0A286XTF2 1-366): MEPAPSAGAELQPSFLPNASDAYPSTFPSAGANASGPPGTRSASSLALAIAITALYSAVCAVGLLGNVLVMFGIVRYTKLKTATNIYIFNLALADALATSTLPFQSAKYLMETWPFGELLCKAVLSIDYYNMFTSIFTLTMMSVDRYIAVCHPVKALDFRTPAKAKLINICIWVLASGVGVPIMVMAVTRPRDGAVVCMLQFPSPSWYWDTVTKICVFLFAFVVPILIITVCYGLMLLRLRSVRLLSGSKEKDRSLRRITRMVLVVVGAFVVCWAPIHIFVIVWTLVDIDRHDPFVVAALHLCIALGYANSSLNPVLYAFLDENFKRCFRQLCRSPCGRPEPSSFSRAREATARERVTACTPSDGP
Assay: Inhibition of SNC-80-stimulated [35S]GTPγS binding in guinea pig caudate
Conditions: 50% attenuation of SNC80 (10 μM)-stimulated [35S]GTP-γ-S binding, ± SD, read-out: Apparent Functional Ki SNC-80
PROPERTY MEASURED: pKi
For clarity, pKi is expressed as the negative log10 of concentration in mol/L.

COMPOUND: Oc1ccc2c3c1O[C@H]1c4[nH]c5c(c4C[C@@]4(O)[C@@H](C2)N(CC2CC2)CC[C@]314)C[C@@]1(O)[C@H]2Cc3ccc(O)c4c3[C@@]1(CCN2CC1CC1)[C@H]5O4
PROPERTY MEASURED: pKi
NUMBER: 7.07

Now consider a different compound.
Exercise: Give me measured pKi, please, for this compound: CC1C2CCCC1(c1cccc(O)c1)CCN2CCc1ccccc1 (stereo not drawn) [Compound 10, reference compound]
Key: 7.90

----------
Target: mu opioid receptor (Cavia porcellus, UniProt A0ACM8Q262)
Sequence (A0ACM8Q262 1-400): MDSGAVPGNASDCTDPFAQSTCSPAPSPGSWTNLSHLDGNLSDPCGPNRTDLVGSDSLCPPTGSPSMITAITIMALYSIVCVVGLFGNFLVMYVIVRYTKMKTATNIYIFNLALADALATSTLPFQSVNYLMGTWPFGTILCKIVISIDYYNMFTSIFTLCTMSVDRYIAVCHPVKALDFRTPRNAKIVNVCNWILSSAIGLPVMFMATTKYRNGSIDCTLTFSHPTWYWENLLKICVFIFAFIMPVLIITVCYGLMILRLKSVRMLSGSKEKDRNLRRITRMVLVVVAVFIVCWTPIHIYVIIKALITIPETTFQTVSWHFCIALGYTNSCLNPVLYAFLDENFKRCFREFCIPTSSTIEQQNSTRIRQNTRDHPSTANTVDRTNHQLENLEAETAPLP
Experiment: Inhibition of DAMGO-stimulated [35S]GTPγS binding in guinea pig caudate
Settings: 50% attenuation of DAMGO (10 μM)-stimulated [35S]GTP-γ-S binding, ± SD, read-out: Apparent Functional Ki DAMGO
Below, each entry is listed alongside its reported pKi.
For clarity, pKi is expressed as the negative log10 of concentration in mol/L.

COMPOUND: C[C@@H]1CN(CCCc2ccccc2)[C@H]2C[C@H](NC(=O)CCN3CCCCC3)C[C@]1(c1cccc(O)c1)C2
pKi: 7.47

Now consider a different compound.
Exercise: Give me measured pKi, please, for this compound: CC1C2CCCC1(c1cccc(O)c1)CCN2CCc1ccccc1 (centres unmarked) [Compound 10, reference compound]
Key: 9.47
